- testedOn: Pro-Link-tagged Human GLP-1R (human, UniProt P43220 24-463)
- assayText: cell-based or functional assay
measuredParameter: hGLP1R B-Arrestin2 Rel EC50 (nM)

>>> reportedvalue("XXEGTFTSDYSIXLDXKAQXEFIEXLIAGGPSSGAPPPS (D-Tyr1, Aib2, αMeL13, Orn16, K17 conjugated to (2-[2-(2-Amino-ethoxy)-ethoxy]-acetyl)2-(γ-Glu)-CO-(CH2)18-CO2H, Aib20, αMeY25, C-terminal amide (NH2)) [Example 293]")
7.19
>>> reportedvalue("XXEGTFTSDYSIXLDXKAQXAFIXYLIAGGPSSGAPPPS (D-Tyr1, Aib2, αMeL13, Orn16, K17 conjugated to (2-[2-(2-Amino-ethoxy)-ethoxy]-acetyl)2-(γ-Glu)-CO-(CH2)16-CO2H, Aib20, D-Glu24, C-terminal amide (NH2)) [Example 363]")
135
>>> reportedvalue("XXEGTFTSDYSIXLDXKAQXAFVEYLIEGGPSSGAPPPS (D-Tyr1, Aib2, αMeL13, Orn16, K17 conjugated to (2-[2-(2-Amino-ethoxy)-ethoxy]-acetyl)2-(γ-Glu)-CO-(CH2)18-CO2H, Aib20, C-terminal amide (NH2)) [Example 360]")
39.5
>>> reportedvalue("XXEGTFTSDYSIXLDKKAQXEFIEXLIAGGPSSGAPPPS (D-Tyr1, Aib2, αMeL13, K17 conjugated to (2-[2-(2-Amino-ethoxy)-ethoxy]-acetyl)2-(γ-Glu)-CO-(CH2)18-CO2H, Aib20, αMeY25, C-terminal amide (NH2)) [Example 292]")
7.74
>>> reportedvalue("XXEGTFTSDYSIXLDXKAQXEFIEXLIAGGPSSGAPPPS (D-Tyr1, Aib2, αMeL13, Orn16, K17 conjugated to (2-[2-(2-Amino-ethoxy)-ethoxy]-acetyl)2-(γ-Glu)-CO-(CH2)16-CO2H, Aib20, αMeY25, C-terminal amide (NH2)) [Example 375]")
11.4
>>> reportedvalue("XXEGTFTSDYSIXLDKKAQXEFIXYLIEGGPSSGAPPPS (D-Tyr1, Aib2, αMeL13, K17 conjugated to (2-[2-(2-Amino-ethoxy)-ethoxy]-acetyl)2-(γ-Glu)-CO-(CH2)18-CO2H, Aib20, D-Glu24, C-terminal amide (NH2)) [Example 353]")
559
